test: HepG2 cell viability effects, profiling panel, calcein-AM fluorescence, 48 h, basal (AID 1164); conditions: higher = more signal; further: test concentration not given here
Cut-off -0.6 on z-score, inclusive. At or above means Condition met; below means Condition not met.

Worked set:
>>> qualitative_label("COC1OC[C@]2(C)[C@H]3C4=C(CN2C(=O)OC(C)(C)C)[C@H](C)C(CO)C(CO)C4CC[C@@H]13 (stereo partly drawn)")
"Condition met"
>>> qualitative_label("CCCC[C@@H]1C[C@H]1[C@@H](NC(=O)Cc1ccccc1)c1ccc(-c2ccccc2)cc1")
"Condition met"
>>> qualitative_label("COCCOC(=O)N1C(=O)[C@@]2(c3cc(C#CCCO)ccc31)[C@H](C(=O)Nc1nc3ccccc3s1)[C@H]1C(=O)O[C@H](c3ccccc3)[C@H](c3ccccc3)N1[C@@H]2c1ccccc1OCCO")
"Condition not met"
>>> qualitative_label("CC(C)C[C@@H]1NC(=O)[C@@H]2C[C@H](C(=O)NCCCCCN)[C@H](c3ccc(O)cc3)N2C1=O")
"Condition met"
>>> qualitative_label("C=CCC(OC(C)=O)[C@@H]1[C@@H](N(Cc2ccc(-c3ccccc3)cc2)C(=O)Cc2ccc(F)cc2)c2cc(OCCCO)ccc2N1C(=O)Cc1ccc(OC)cc1 (stereo partly drawn)")
"Condition met"
>>> qualitative_label("CC=CC(O)C1C=CC2C(=O)N(c3ccccc3)C(=O)C2N1Nc1ccccc1F (stereo not drawn)")
"Condition met"
>>> qualitative_label("COCCCNC(=O)[C@@]1(Cc2ccccc2N=[N+]=[N-])COC(c2ccc(OCCCO)cc2)=N1")
"Condition met"
>>> qualitative_label("COC(=O)c1c2oc(c1C(=O)OC)C(=O)N(C)Cc1cn(nn1)C[C@H](Cc1ccccc1)NC(=O)N[C@H](CO)CC2")
"Condition met"

**Q:** I'd appreciate it if you could say whether CCCCC(O)C1C=CC2C(=O)N(c3ccccc3)C(=O)C2N1Nc1ccc(C(C)C)cc1 (stereo not drawn) has z-score at least equal to -0.6.
**A:** Condition met

**Q:** I'd appreciate it if you could say whether `[N-]=[N+]=Nc1ccccc1[C@H]1OC(c2ccc(OCCCO)cc2)=N[C@@]1(Cc1ccccc1)C(=O)N1CCCCC1` has z-score at least equal to -0.6.
**A:** Condition not met

**Q:** I'd appreciate it if you could say whether `CC(C)Cc1ccc(CN2CC[C@@H](NC(=O)Nc3ccccc3)C2)cc1` has z-score at least equal to -0.6.
**A:** Condition not met

**Q:** I'd appreciate it if you could say whether CC(CO)N1C(=O)[C@@H]2[C@H]3C(=O)OCC=C[C@H]3OC23C=CCN(CCN2CCOCC2)C(=O)[C@@H]13 (stereo partly drawn) has z-score at least equal to -0.6.
**A:** Condition met

**Q:** I'd appreciate it if you could say whether C=CC1c2cc(O)c(OC)cc2CCN1Cc1cc2c(cc1Br)OCO2 (stereo not drawn) has z-score at least equal to -0.6.
**A:** Condition not met

**Q:** I'd appreciate it if you could say whether `O=C1C=C(c2ccccc2)C(=O)c2ccc([C@H]3Oc4ccccc4S(=O)(=O)N4CCC[C@@H]34)cc21` has z-score at least equal to -0.6.
**A:** Condition not met

----------
system: Human papillomavirus type 1a protein E7 (residues 44-93); test: HPV1a E7 fragment binders on microarrays, primary screen, biochemical, small-molecule microarray, residues 44-93, 635 nm fluorescence (AID 1108); settings: small-molecule microarray binding, fluorescence 635 nm; higher = more signal;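 further: E7 fragment applied at 1 µg/mL in TBST for 1 h at 4 C; score combines spot fluorescence with its signal to noise ratio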
recorded metric: composite z-score
Format: numeric value only, no unit, no commentary.

>>> measured_value("C=CC[C@@]1(C(=O)N2CCOCC2)N=C(c2ccc(OCCCO)cc2)O[C@@H]1c1ccccc1CN=[N+]=[N-]")
1.44
>>> measured_value("C=C[C@@H](OC)[C@H](OC(=O)Nc1ccc(SC)cc1)c1ccc(O)c(F)c1")
1.33
>>> measured_value("COc1ccc(CCNC(=O)[C@@]2(Sc3ccc(C)cc3)CC(=O)N(C3Cc4ccccc4C3)[C@@H]2c2ccc(CO)cc2)cc1")
1.42

Then there is this molecule:
Entry `C[C@]1(C(=O)NC2CC2)c2ccccc2C(=O)N(Cc2ccccc2)[C@H]1c1ccc(CO)cc1` , composite z-score reported as -0.614

----------
experiment: RPMI8226 myeloma cell viability, profiling panel, resazurin fluorescence, basal, 24 h, PK04 Diversity Set (AID 1180); settings: higher = more signal;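 further: RPMI8826 multiple myeloma cell line at 5000 cells per well; test concentration not given here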
recorded metric: z-score
Format: numeric value only, no unit, no commentary.

Look over these answered cases.
>>> measured_value("C=C(COC)C(=O)CC[C@@H](OC(=O)c1cccnc1)c1ccc(OCCO)cc1")
0.221
>>> measured_value("C[N+](C)(C)CCCCCCNC(=O)[C@H]1C[C@H]2C(=O)N[C@@H](Cc3ccccc3)C(=O)N2[C@H]1c1ccc(O)cc1")
0.201
>>> measured_value("C=CCC(OC(C)=O)[C@@H]1[C@@H](N(Cc2cc3ccccc3o2)C(=O)c2ccc(-c3ccccc3)cc2)c2cc(OCCCO)ccc2N1C(=O)c1ccc2ccccc2c1 (some centres undefined)")
-0.158

Then there is this molecule:
Entry `C=C(COC)/C(=C/C[C@H](OC(C)=O)c1ccc(OCCO)cc1)c1cc(C(=O)OC)ccc1OC` , z-score reported as 1.46

----------
target: Neurogenic locus notch homolog protein 2 (Homo sapiens); assay: Notch2 binders on small-molecule microarrays, primary screen, biochemical, small-molecule microarray, 635 nm fluorescence, stem cell growth factors (AID 1073); conditions: Notch2 binding, higher = more signal
Cut-off 0.02 on composite z-score, inclusive. At or above means label 1; below means label 0.

Worked set:
>>> qualitative_label("COC(=O)C(CC#Cc1ccc2c(c1)[C@]1(C(=O)N2)[C@H](c2ccccc2OCCO)N2[C@H](c3ccccc3)[C@H](c3ccccc3)OC(=O)[C@H]2[C@@H]1C(=O)NC[C@H](O)c1ccccc1)C(=O)OC")
"label 1"
>>> qualitative_label("[N-]=[N+]=NCc1ccccc1[C@H]1OC(c2ccc(OCCCO)cc2)=N[C@@]1(CCS(=O)(=O)c1ccccc1)C(=O)NCC(O)CO (stereo partly drawn)")
"label 1"
>>> qualitative_label("C=CC[C@]1(C(=O)NCCN2CCOCC2)N=C(c2ccc(OCCCO)cc2)O[C@H]1c1ccccc1CN=[N+]=[N-]")
"label 1"
>>> qualitative_label("COc1ccc(NC(=O)O[C@H]2[C@H](OC(=O)Nc3ccccc3)[C@H](OC(=O)Nc3ccccc3)[C@@H](OC)O[C@@H]2CO)cc1")
"label 1"
>>> qualitative_label("CN1C(=O)C2C=CC(C(O)c3cccc4ccccc34)N(N3CCCCC3)C2C1=O (stereo not drawn)")
"label 1"
>>> qualitative_label("CCCNC(=O)[C@@H]1c2ccccc2C(=O)N(C(C)C)[C@H]1c1ccc(CO)cc1")
"label 0"
>>> qualitative_label("CC1CC/C=C\\[C@H]2OC34C=CCN(c5ccc(Cl)cc5)C(=O)[C@H]3N(CCCCCO)C(=O)[C@]4(C)C2C(=O)O1 (stereo partly drawn)")
"label 0"
>>> qualitative_label("COc1ccc(CCNC(=O)[C@@H]2c3ccccc3C(=O)N(Cc3cc(C(F)(F)F)cc(C(F)(F)F)c3)[C@H]2c2ccc(CO)cc2)cc1")
"label 0"

**Q:** I'd appreciate it if you could say whether C=CCC(OC(C)=O)[C@@H]1[C@@H](N(Cc2cccc3ccccc23)C(=O)Cc2ccc(OC)cc2)c2cc(OCCCO)ccc2N1C(=O)c1ccc2ccccc2n1 (stereo partly drawn) has composite z-score at least equal to 0.02.
**A:** label 0

**Q:** I'd appreciate it if you could say whether `CN(C)CCCNC(=O)[C@@H]1c2ccccc2C(=O)N(Cc2ccccc2Cl)[C@H]1c1ccc(CO)cc1` has composite z-score at least equal to 0.02.
**A:** label 0

**Q:** I'd appreciate it if you could say whether `COCCOC(=O)N1C(=O)[C@@]2(c3cc(C#CC4=CCCCC4)ccc31)[C@H](c1ccccc1OCCO)N1[C@H](c3ccccc3)[C@H](c3ccccc3)OC(=O)[C@H]1[C@@H]2C(=O)N1CCCCCCC1` has composite z-score at least equal to 0.02.
**A:** label 1

**Q:** I'd appreciate it if you could say whether CCCCCCCCCCC(O)C1C=CC2C(=O)N(C)C(=O)C2N1NC(=O)OC(C)(C)C (stereo not drawn) has composite z-score at least equal to 0.02.
**A:** label 1

**Q:** I'd appreciate it if you could say whether `O[C@@H](Cc1ccccc1)[C@@H](/C=C/C1CC1)N(CC#Cc1ccccc1)Cc1cccc(Cl)c1` has composite z-score at least equal to 0.02.
**A:** label 0

**Q:** I'd appreciate it if you could say whether `Cc1ccc(S[C@]2(C(=O)NCC(F)(F)F)CC(=O)N(Cc3ccccc3)[C@@H]2c2ccc(CO)cc2I)cc1` has composite z-score at least equal to 0.02.
**A:** label 1

**Q:** I'd appreciate it if you could say whether `CC(C)N1C(=O)c2ccccc2[C@@H](C(=O)NC2CC2)[C@@H]1c1ccc(CO)cc1` has composite z-score at least equal to 0.02.
**A:** label 0

**Q:** I'd appreciate it if you could say whether `C=C(/C(=C/C[C@H](OC(C)=O)c1ccccc1OCCO)c1cc(C(=O)OC)ccc1OC)C(C)C` has composite z-score at least equal to 0.02.
**A:** label 0

**Q:** I'd appreciate it if you could say whether `C=CCNC(=O)[C@H]1[C@@H]2C(=O)O[C@@H](c3ccccc3)[C@@H](c3ccccc3)N2[C@@H](c2ccc(O)cc2)[C@]12C(=O)Nc1ccc(C#CC3(O)CCCCCC3)cc12` has composite z-score at least equal to 0.02.
**A:** label 0

**Q:** I'd appreciate it if you could say whether `COC(=O)[C@@]1(Cc2ccc(OC)cc2)[C@H]2c3cc(C(=O)N4CCCC4)n(Cc4cccc5ccccc45)c3C[C@H]2CN1C(=O)c1ccccc1` has composite z-score at least equal to 0.02.
**A:** label 1
